Quick record of IC50 values for UniProt Q07343.
Sequence (Q07343 whole entry): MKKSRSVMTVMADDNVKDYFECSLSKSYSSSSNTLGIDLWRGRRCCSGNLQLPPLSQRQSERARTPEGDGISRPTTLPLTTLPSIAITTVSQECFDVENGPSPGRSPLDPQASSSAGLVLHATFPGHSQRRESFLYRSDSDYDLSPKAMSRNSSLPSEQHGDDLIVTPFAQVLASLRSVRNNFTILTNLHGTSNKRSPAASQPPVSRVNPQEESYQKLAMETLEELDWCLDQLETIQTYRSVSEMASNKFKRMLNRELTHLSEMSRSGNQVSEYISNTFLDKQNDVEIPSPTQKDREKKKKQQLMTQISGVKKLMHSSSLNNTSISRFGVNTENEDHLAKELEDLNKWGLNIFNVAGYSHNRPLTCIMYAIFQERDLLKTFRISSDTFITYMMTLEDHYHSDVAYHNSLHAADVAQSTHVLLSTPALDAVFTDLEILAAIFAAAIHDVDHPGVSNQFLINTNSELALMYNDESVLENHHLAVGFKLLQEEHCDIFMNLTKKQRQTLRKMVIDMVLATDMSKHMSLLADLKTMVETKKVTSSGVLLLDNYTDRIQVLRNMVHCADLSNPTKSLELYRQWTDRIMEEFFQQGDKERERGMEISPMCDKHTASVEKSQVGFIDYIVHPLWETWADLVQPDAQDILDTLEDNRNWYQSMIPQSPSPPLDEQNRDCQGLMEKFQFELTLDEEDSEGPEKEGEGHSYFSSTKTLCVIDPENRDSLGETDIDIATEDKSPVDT
Readout Name: IC50 (pM)

These recorded examples may help you get a feel for the data.
O=S(=O)(Nc1cccc(-c2cc(Cc3ccncc3)cc3cccnc23)c1)c1ccccc1
3000
CC(C)NC(=O)/C(=C/c1cccc(-c2cc(C(C)(C)S(C)(=O)=O)cc3cccnc23)c1)c1ccc(S(C)(=O)=O)cc1
500

[a] CC(C)c1cc(-c2cccc(CC(c3ccncc3)C(C)(C)O)c2)c2ncccc2c1 (stereo not given)
[b] CC(C)c1cc(-c2cccc(/C=C(/C(=O)O)c3ccc(S(C)(=O)=O)cc3)c2)c2ncccc2c1
Inquiry: # argmax over IC50 for candidates a and b Let me know the label of the one you choose.
Reply text: a

[P] COc1ccc([C@H](Cc2ccncc2)c2ccccc2)cc1OC1CCCC1
[Q] CC(C)NC(=O)/C(=C/c1cccc(-c2cc(C(C)C)cc3cccnc23)c1)c1ccc(S(C)(=O)=O)cc1
Inquiry: Given the listed items, does P or Q have the lesser reported IC50? Let me know the label of the one you choose.
Reply text: Q
(Q: 300 pM, P: 1400 pM)

[A] [O-][n+]1cccc(C[C@@H](c2ccc(OC(F)F)c(OC3CC3)c2)c2cnc(C(O)(C(F)(F)F)C(F)(F)F)s2)c1
[B] Cc1noc(/C(=C/c2cccc(-c3cc(C(C)C)cc4cccnc34)c2)c2ccc(S(C)(=O)=O)cc2)n1
Inquiry: Given the listed items, does A or B have the lesser reported IC50? Let me know the label of the one you choose.
Reply text: B

[P] CC(C)NC(=O)/C(=C/c1cccc(-c2cc(C(C)(C)C#N)cc3cccnc23)c1)c1ccc(S(C)(=O)=O)cc1
[Q] COc1cccc(-c2cc(Cc3ccncc3)cc3cccnc23)c1
Inquiry: Given the listed items, does P or Q have the lesser reported IC50? Let me know the label of the one you choose.
Reply text: P
